Assay: Pharmacokinetic evaluation in female Balb-C mice after intravenous administration
Assay type: in vivo
Conditions: mouse, plasma, Table 3, comparative examples, IV typically 0.5 mg/Kg, Vd at steady state, read-out: Vd
property label: Vd (L/kg)
The figure you give is taken to be in L/kg; do not add the unit.

molecule_smiles=N#Cc1cc(-c2ccnc(Nc3ccnc(NC(=O)CN4CCOCC4)c3)n2)cnc1N1CC[C@H](F)C1 property_label=Vd unit_abbrev=L/kg val=0.7

query: For the compound N#Cc1cc(-c2ccnc(Nc3ccc(CN4CCOCC4)nc3)n2)cnc1N1CC[C@H](F)C1 , what Vd is on record?
result: 0.3

###

Target sequence: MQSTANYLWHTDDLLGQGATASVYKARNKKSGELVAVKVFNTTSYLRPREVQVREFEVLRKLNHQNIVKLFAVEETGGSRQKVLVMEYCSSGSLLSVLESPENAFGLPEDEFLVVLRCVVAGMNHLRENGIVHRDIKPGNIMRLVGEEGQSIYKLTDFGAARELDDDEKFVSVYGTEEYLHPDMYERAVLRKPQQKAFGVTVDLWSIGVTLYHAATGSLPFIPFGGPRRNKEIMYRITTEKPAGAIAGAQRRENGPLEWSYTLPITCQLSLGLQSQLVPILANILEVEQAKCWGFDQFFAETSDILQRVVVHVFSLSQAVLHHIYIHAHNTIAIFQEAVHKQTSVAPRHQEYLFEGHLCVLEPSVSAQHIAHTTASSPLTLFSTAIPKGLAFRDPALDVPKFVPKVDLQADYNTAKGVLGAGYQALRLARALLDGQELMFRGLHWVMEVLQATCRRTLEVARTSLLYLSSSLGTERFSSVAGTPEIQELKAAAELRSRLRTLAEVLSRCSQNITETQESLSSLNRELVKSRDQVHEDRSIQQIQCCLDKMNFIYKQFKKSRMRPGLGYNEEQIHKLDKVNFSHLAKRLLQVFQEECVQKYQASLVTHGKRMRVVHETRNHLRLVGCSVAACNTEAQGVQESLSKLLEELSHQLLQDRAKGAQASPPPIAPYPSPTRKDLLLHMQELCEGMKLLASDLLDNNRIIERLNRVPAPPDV
Each entry below lists one item and its recorded pIC50 value.
Expect pIC50 as a plain number equal to -log10 of the molar concentration.

// solved cases for pIC50 follow
compound="CCN1CCN(Cc2ccc(Nc3nccc(-c4cnc(N5CC[C@@H](F)C5)c(C#N)c4)n3)cn2)CC1 [Ex. No. 2]" val=7.68
compound="CCN1CCN(Cc2ccc(Nc3nccc(-c4cnc(N5CC[C@H](F)C5)c(C#N)c4)n3)cn2)CC1 [Ex. No. 1]" val=7.80

Next compound, pIC50 to be filled in.
query: For the compound CN1CCN(Cc2ccc(Nc3nccc(-c4cnc(N5CC[C@H](F)C5)c(C#N)c4)n3)cn2)CC1 [Ex. No. 3] , what pIC50 is on record?
result: 7.62

###

Each entry below lists one item and its recorded Human Heps (μL/min/10^6 cells) value.
Experiment: Human hepatocyte (liver cell) stability
Type: in vitro ADME
Settings: Table 5, comparative examples; intrinsic clearance, cryopreserved pooled human hepatocytes, 3 μM compound, 0-60 min
The figure you give is taken to be in μL/min/10^6 cells; do not add the unit.

molecule="CN1CCN(c2ccc(Nc3nccc(-c4cnc(N5CC[C@H](F)C5)c(C#N)c4)n3)cn2)CC1 [Comp. Ex. 3]" val=48
molecule="N#Cc1cc(-c2ccnc(Nc3ccnc(NC(=O)CN4CCOCC4)c3)n2)cnc1N1CC[C@H](F)C1 [Comp. Ex. 5]" val=6
molecule="N#Cc1cc(-c2ccnc(Nc3ccc(CN4CCOCC4)nc3)n2)cnc1N1CC[C@H](F)C1 [Comp. Ex. 1]" val=13

query: For the molecule N#Cc1cc(-c2ccnc(Nc3ccc(NC(=O)CN4CCOCC4)nc3)n2)cnc1N1CC[C@H](F)C1 [Comp. Ex. 4] , what Human Heps (μL/min/10^6 cells) is on record?
result: 6

###

Target sequence: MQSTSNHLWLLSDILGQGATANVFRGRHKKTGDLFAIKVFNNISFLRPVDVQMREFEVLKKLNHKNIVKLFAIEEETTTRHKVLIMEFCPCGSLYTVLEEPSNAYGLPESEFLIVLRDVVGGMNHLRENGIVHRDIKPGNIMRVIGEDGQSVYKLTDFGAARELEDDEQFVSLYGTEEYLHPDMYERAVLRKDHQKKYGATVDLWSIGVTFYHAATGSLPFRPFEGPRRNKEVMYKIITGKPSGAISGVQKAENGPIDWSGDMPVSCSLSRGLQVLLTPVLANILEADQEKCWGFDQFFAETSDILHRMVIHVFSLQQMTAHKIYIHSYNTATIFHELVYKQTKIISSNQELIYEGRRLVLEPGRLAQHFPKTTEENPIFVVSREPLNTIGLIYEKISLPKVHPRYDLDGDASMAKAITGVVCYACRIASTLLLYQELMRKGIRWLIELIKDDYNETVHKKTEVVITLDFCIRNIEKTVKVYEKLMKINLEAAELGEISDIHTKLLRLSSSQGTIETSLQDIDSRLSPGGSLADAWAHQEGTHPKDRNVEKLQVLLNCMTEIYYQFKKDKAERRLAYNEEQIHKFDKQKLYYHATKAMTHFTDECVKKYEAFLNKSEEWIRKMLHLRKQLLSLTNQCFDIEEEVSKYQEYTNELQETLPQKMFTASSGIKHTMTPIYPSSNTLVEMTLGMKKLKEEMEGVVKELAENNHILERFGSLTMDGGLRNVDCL
Each entry below lists one item and its recorded pIC50 value.
Expect pIC50 as a plain number equal to -log10 of the molar concentration.

// solved cases for pIC50 follow
compound="CN1CCN(Cc2ccc(Nc3nccc(-c4cnc(N5CC[C@H](F)C5)c(C#N)c4)n3)cn2)CC1 [Ex. No. 3]" val=7.77
compound="CCN1CCN(Cc2ccc(Nc3nccc(-c4cnc(N5CC[C@H](F)C5)c(C#N)c4)n3)cn2)CC1 [Ex. No. 1]" val=8.05

Next compound, pIC50 to be filled in.
query: For the compound CCN1CCN(Cc2ccc(Nc3nccc(-c4cnc(N5CC[C@@H](F)C5)c(C#N)c4)n3)cn2)CC1 [Ex. No. 2] , what pIC50 is on record?
result: 7.70

###

Experiment: Pharmacokinetic evaluation in female Balb-C mice after intravenous administration
Assay type: in vivo
Conditions: mouse, Table 3, comparative examples, IV typically 0.5 mg/Kg, terminal half life in plasma (estimated), read-out: t½ (converted)
Each entry below lists one item and its recorded half-life value.
The figure you give is taken to be in min; do not add the unit.

// solved cases for half-life follow
molecule_smiles=N#Cc1cc(-c2ccnc(Nc3ccc(NC(=O)CN4CCOCC4)nc3)n2)cnc1N1CC[C@H](F)C1 val=30
molecule_smiles=N#Cc1cc(-c2ccnc(Nc3ccnc(NC(=O)CN4CCOCC4)c3)n2)cnc1N1CC[C@H](F)C1 val=42

Next compound, half-life to be filled in.
query: For the compound N#Cc1cc(-c2ccnc(Nc3ccc(CN4CCOCC4)nc3)n2)cnc1N1CC[C@H](F)C1 , what half-life is on record?
result: 30
